Target: Proto-oncogene tyrosine-protein kinase Src (Homo sapiens);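 note: values are averaged inhibition of Src, tested against the GSK PKIS kinase inhibitor set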
Details: at 0.1 µM
Can you tell me inhibition for the items I'm about to list?
Number in %, nothing else.

Req: State the recorded inhibition for this entry: "NC(=O)c1cc(-c2ccc(F)cc2)cc(-c2ccncc2)c1N"
Resp: -1.61

Req: Can you check "CN(c1ccc(NC(=O)Nc2c(Cl)cccc2Cl)cc1)c1ccnc(Nc2cccc(CS(C)(=O)=O)c2)n1" next?
Resp: 40.7

Req: Can you check "CCc1nccc2c1nc(-c1nonc1N)n2CC" next?
Resp: -0.62

Req: Can you check "CN(C)CCOc1ccc(-c2cc(-c3ccc4c(c3)CCC4=NO)c(-c3ccncc3)o2)cc1" next?
Resp: 1.1

Req: Can you check "C[C@@H](Oc1cc(-n2cnc3ccc(OC4CCN(C)CC4)cc32)sc1C(N)=O)c1ccccc1Cl" next?
Resp: 10.3

Req: Can you check "O=C(Nc1n[nH]c2nc(-c3ccco3)ccc12)C1CC1" next?
Resp: -4.02

Req: Can you check "CS(=O)(=O)CCNCc1cc(-c2cc3c(Nc4ccc(OCc5cccc(F)c5)c(Cl)c4)ncnc3s2)cs1" next?
Resp: 10.7

Req: Can you check "CN1CCN(CCCNc2nc3ccc(Oc4ccc(NC(=O)Nc5cc(C(F)(F)F)ccc5F)cc4)cc3[nH]2)CC1" next?
Resp: 4.89

Req: Can you check "NS(=O)(=O)c1ccc(N/N=C2\C(=O)Nc3ccc(C(=O)NCCCn4ccnc4)cc32)cc1" next?
Resp: 9.31

Req: Can you check "Clc1ccc(CNc2nccc(-c3cnn4ncccc34)n2)cc1" next?
Resp: 0.82

Req: Can you check "COc1ccc(-c2ccc3c(NC(=O)C4CC4)n[nH]c3n2)cc1" next?
Resp: 7.63

Req: Can you check "FC(F)(F)c1cccc(Nc2nccc(-c3cnn4nc(-c5ccccc5)ccc34)n2)c1" next?
Resp: 5.04

Req: Can you check "Fc1ccc(-c2ncn(C3CCNCC3)c2-c2ccnc(Oc3ccc(F)c(F)c3)n2)cc1" next?
Resp: 5.82

Req: Can you check "O=C1NC(=O)C(c2cccc(Cl)c2)=C1Nc1ccc(Cl)c(C(=O)O)c1" next?
Resp: 8.46

Req: Can you check "CCc1ccc(Oc2nccc(-c3c(-c4ccc(F)cc4)ncn3C3CCNCC3)n2)cc1" next?
Resp: 10.2

Req: Can you check "COc1ccc(C2=C(N3CCc4ccccc43)C(=O)NC2=O)cc1" next?
Resp: -1.55

Req: Can you check "COc1cc(Nc2ncc(-c3ccccc3)o2)cc(OC)c1OC" next?
Resp: 19.7

Req: Can you check Nc1nccc(-c2c(-c3ccc(F)cc3)ncn2C2CCC(O)CC2)n1 (stereo unspecified) next?
Resp: 0.34

Req: Can you check "CCc1cccc(CC)c1/C=C/c1cncc(C(=O)NC)c1" next?
Resp: 2.97

Req: Can you check "Fc1ccc(-c2nc3n(c2-c2ccncc2)CCS3)cc1" next?
Resp: 3.03

Req: Can you check "COc1cc2ncn(-c3cc(OCCc4ccccc4)c(C(N)=O)s3)c2cc1OC" next?
Resp: 1.6
